- STUDY_SYSTEM: PD-1/PD-L1 (Homo sapiens, UniProt Q9NZQ7)
- Sequence (Q9NZQ7 19-238 limits assumed): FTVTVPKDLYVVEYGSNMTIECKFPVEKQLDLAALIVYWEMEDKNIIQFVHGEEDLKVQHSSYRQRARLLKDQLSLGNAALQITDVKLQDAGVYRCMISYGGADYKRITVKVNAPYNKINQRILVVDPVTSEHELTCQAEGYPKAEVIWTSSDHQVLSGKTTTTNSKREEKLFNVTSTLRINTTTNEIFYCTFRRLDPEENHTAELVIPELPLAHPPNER
- MEASUREMENT_DESCRIPTION: TR-FRET PD-1/PD-L1 binding inhibition at the molecular level (free proteins)
- REPORTED_CONDITIONS: Tag1-PD-L1 and Tag2-PD-1 proteins, twelve concentrations from 200 nM, 2 hours at room temperature, read-out: FRET assay (IC50)
- Experimental: In order to evaluate the inhibitory activity of the compounds synthesized according to the above Preparation Examples against PD-1/PD-L1 molecules in a free protein state,a TR-FRET (Time-Resolved Fluorescence Energy Transfer) experimetn was performed as described below. Specifically, the compounds were prepared in a 96-well plate by serial dilution starting from 200 nM with 1/2 dilutions to obtain a total of twelve concentrations, and 2 µL of each compound solution was added to a 384-well plate. […]
MEASURED_PARAMETER: IC50

Take a look at these entries with their results.
Cc1nc(Nc2cccc(-c3cccc(NC(=O)c4cc5n(n4)CCC[C@@H]5N4CCC(C(=O)O)CC4)c3Cl)c2Cl)c2ncccc2n1 : 10 to 100 nM
O=C(Nc1cccc(-c2cccc(Nc3nccc4cc(CN5CC[C@H](O)C5)cnc34)c2Cl)c1Cl)c1cc2n(n1)CCC[C@H]2N1CCC(C(=O)O)CC1 : 10 to 100 nM
O=C(Nc1cccc(-c2cccc(Nc3nc(C(F)F)nc4cc(CN5CC[C@@H](O)C5)cnc34)c2Cl)c1Cl)c1cc2n(n1)CCC[C@@H]2N1CC(C(=O)O)C1 (stereo in doubt) [Compound 262] : 10 to 100 nM

Now consider a different molecule.
molecule O=C1CC[C@@H](CNCc2ccc(-c3cccc(-c4cccc(NC(=O)c5cc6n(n5)CCCC6O)c4Cl)c3Cl)cc2)N1 (stereo partly shown) , IC50 observed: < 10 nM

---

- STUDY_SYSTEM: PD-1/PD-L1 (Homo sapiens)
- MEASUREMENT_DESCRIPTION: TR-FRET PD-1/PD-L1 binding inhibition at the molecular level (free proteins)
- REPORTED_CONDITIONS: Tag1-PD-L1 and Tag2-PD-1 proteins, twelve concentrations from 200 nM, 2 hours at room temperature, read-out: FRET assay (IC50)
pIC50: −log10 of the molar value.
Task for the reader: assign each of the following molecules its reported pIC50.

CN[C@@H]1CCCn2nc(C(=O)Nc3cccc(-c4cccc(Nc5nc(C(F)(F)F)nc6cccnc56)c4Cl)c3Cl)cc21 : 7.00 to 8.00
O=C(Nc1cccc(-c2cccc(Nc3nccc4cc(CN5CC[C@@H](O)C5)cnc34)c2Cl)c1Cl)c1cc2n(n1)CCCC2N1CCCC1=O (stereo partly shown) : 7.00 to 8.00
Cc1c(NC(=O)c2cc3n(n2)CCCC3O)cccc1-c1cccc(NC(=O)c2cc3n(n2)CCCC3O)c1C (stereo not shown) : > 8.00

molecule COc1cc(-c2cccc(-c3cccc(NC(=O)c4cc5n(n4)CCCC5NCC(=O)O)c3Cl)c2Cl)cc(F)c1CNCCNC(C)=O (stereo not shown) , pIC50 observed: > 8.00

---

- STUDY_SYSTEM: PD-1/PD-L1 (Homo sapiens, UniProt Q9NZQ7)
- MEASUREMENT_DESCRIPTION: TR-FRET PD-1/PD-L1 binding inhibition at the molecular level (free proteins)
- REPORTED_CONDITIONS: Tag1-PD-L1 and Tag2-PD-1 proteins, twelve concentrations from 200 nM, 2 hours at room temperature, read-out: FRET assay (IC50)
pIC50: −log10 of the molar value.
Task for the reader: assign each of the following compounds its reported pIC50.

Take a look at these entries with their results.
Cc1nc(Nc2cccc(-c3cccc(NC(=O)c4cc5n(n4)CCC[C@@H]5N4CC(C(=O)O)C4)c3Cl)c2Cl)c2ncccc2n1 [Compound 281] : > 8.00
Cc1nc(Nc2cccc(-c3cccc(NC(=O)c4cc5n(n4)CCC[C@H]5N4CC(C(=O)O)C4)c3Cl)c2Cl)c2ncccc2n1 [Compound 282] : > 8.00
Cc1c(NC(=O)c2cc3n(n2)CCCC3NC[C@@H]2CCC(=O)N2)cccc1-c1cccc(Nc2nccc3cc(CN4CC[C@@H](O)C4)cnc23)c1Cl (stereo partly drawn) [Compound 40] : 7.00 to 8.00
O=C1CC[C@@H](CN[C@H]2CCCn3nc(C(=O)Nc4cccc(-c5cccc(NC(=O)c6ccc(CNCCO)cn6)c5Cl)c4Cl)cc32)N1 [Compound 224] : > 8.00
COc1cc(-c2cccc(-c3cccc(NC(=O)c4cc5n(n4)CCCC5N4CC[C@@H](O)C4)c3Cl)c2Cl)cc(F)c1CNC[C@@H]1CCC(=O)N1 (stereo partly drawn) [Compound 127] : 7.00 to 8.00
O=C(Nc1cccc(-c2cccc(Nc3nccc4cc(CN5CC[C@@H](O)C5)cnc34)c2Cl)c1Cl)c1cc2n(n1)CCCC2N1CCC(C(=O)O)CC1 (stereo partly drawn) [Compound 24] : 7.00 to 8.00
COc1cc(C(=O)Nc2cccc(-c3cccc(NC(=O)c4cc5n(n4)CCCC5N4CC[C@@H](C(=O)O)C4)c3Cl)c2Cl)cc(F)c1CN1CC[C@@H](C(=O)O)C1 (stereo partly drawn) [Compound 197] : 7.00 to 8.00
COc1cc(C(=O)Nc2cccc(-c3cccc(NC(=O)c4cc5n(n4)CCCC5N4CC[C@@H](C(=O)O)C4)c3Cl)c2Cl)cc(F)c1CNCC(=O)O (stereo partly drawn) [Compound 195] : > 8.00

Quick batch: pIC50 for everything below.
1. N#Cc1cc(CN2CC[C@@H](C(=O)O)C2)cc2nc(-c3cccc(-c4cccc(NC(=O)c5cc6n(n5)CCCC6O)c4Cl)c3Cl)oc12 (stereo partly drawn) [Compound 67]
2. N#Cc1cc(CN2CC[C@@H](C(=O)O)C2)cc2nc(-c3cccc(-c4cccc(NC(=O)c5cc6n(n5)CCCC6NCCO)c4Cl)c3Cl)oc12 (stereo partly drawn) [Compound 70]

### Response
> 8.00
> 8.00

Quick batch: pIC50 for everything below.
1. O=C(Nc1cccc(-c2cccc(NC(=O)c3cc4n(n3)CCC[C@@H]4NCCO)c2Cl)c1Cl)c1cc2n(n1)CCC[C@@H]2NCCO [Compound 316]
2. CC(C)(O)C1CN(C2CCCn3nc(C(=O)Nc4cccc(-c5cccc(Nc6nccc7cc(CN8CC[C@@H](O)C8)cnc67)c5Cl)c4Cl)cc32)C1 (stereo partly drawn) [Compound 237]

### Response
["> 8.00", "7.00 to 8.00"]
